B1: RIPK4 (parent)
chain: VSVNAQTLDGRTPLHLAAQRGHYR

Variants of: B1
procedureText: protein stability index of a GFP-peptide fusion (GPS, HEK-293T) (PSI 1-6); higher = more stable;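 further: lentivirally expressed fusions sorted by FACS into six bins by GFP to DsRed ratio, PSI derived from sequencing read proportions per bin multiplied by bin number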
conditionLabel: c terminus: a fixed tail appended

sequenceString	protein stability index
VSVNAQTLDGRKPLHLAAQRGHYR	3.72
VSVNAQTPDGRTPLHLAAQRGHYR	3.95
VSVNAQTLDGSTPLHLAAQRGHYR	3.12
VSLNAQTLDGRTPLHLAAQRGHYR	3.35
VSVNAQTLDGRTPVHLAAQRGHYR	3.4
VSVNAQTLDGRTPLHLAAQGGHYR	2.96
VSVNAQTLDGRTPLHLAAQTGHYR	2.85
VSVNAQTFDGRTPLHLAAQRGHYR	3.29
VSVNAQTLDGRTPDHLAAQRGHYR	3.62
VSVNAQTLDGRTSLHLAAQRGHYR	3.3
VSVNAQTLDGRTPLHLAQQRGHYR	3.29
VSVNAQTLDGRTPLHLMAQRGHYR	3.31
VSVNAQTHDGRTPLHLAAQRGHYR	3.73
MSVNAQTLDGRTPLHLAAQRGHYR	4.21
VSVNAQTLDGRTPQHLAAQRGHYR	3.75
VSVNAQTLGGRTPLHLAAQRGHYR	3.02
VSVNAQTLDGRTPLHLAAQRCHYR	2.44
VSVNAQTLDGRTPLHLANQRGHYR	3.46
VSVNAQTLDGRTPLHLAAQRGHER	4.39
VSVNAQTLDGRTPLHLAAHRGHYR	3.27
VSVNAQTLDGRTPYHLAAQRGHYR	3.21
VSVNAQQLDGRTPLHLAAQRGHYR	4.04
VSVNAQTLDFRTPLHLAAQRGHYR	2.4
VSVNAQVLDGRTPLHLAAQRGHYR	3.23
QSVNAQTLDGRTPLHLAAQRGHYR	3.99
VSVNAQTLDGCTPLHLAAQRGHYR	2.91
RSVNAQTLDGRTPLHLAAQRGHYR	4.06
VSVNAQTLDGNTPLHLAAQRGHYR	3.42

// data source = the supplement of paper PMC10567573
